System: Candida albicans ATCC 11651
Assay: In vivo systemic Candida infection in mice, primary assay
Design: species or system Candida albicans; CF-1 female mice
Settings: Candida albicans, ATCC11651, 504 h, 150 mg/kg per day, day 21; read-out: % Survival
Property: responders at 150 mg/kg (%)
Hi! Could you send only the number? It should be in %, unit omitted.

Query: What does the data say about its responders at 150 mg/kg? Entry: C=C(c1ccc(OC)cc1)C(O)(Cn1cncn1)c1ccc(F)cc1 (stereo not shown) [Example 726]
Result: 10

Query: For C=C(c1ccc(Cl)cc1Cl)C(O)(Cn1cncn1)c1ccc(Cl)cc1Cl (stereo not shown) [Example 100] then?
Result: 30

Query: Now try C=C(c1ccc(SC)cc1)C(O)(Cn1cncn1)c1ccc(F)cc1 (stereo not shown) [Example 163] .
Result: 40

Query: Would you kindly repeat that for C=C(c1ccc(C)cc1)C(O)(Cn1cncn1)c1ccc(F)cc1 (stereo not shown) [Example 721] ?
Result: 30

Query: Try the molecule C=C(c1ccccc1Cl)C(O)(Cn1cncn1)c1ccc(F)cc1 (stereo not shown) [Example 32]
Result: 50

Query: Try C=C(c1ccc(F)cc1)C(O)(Cn1cncn1)c1ccccc1Cl (stereo not shown) [Example 646] next.
Result: 70

Query: Could you do the same for OC(Cn1cncn1)(c1ccc(F)cc1)C1(c2ccc(F)cc2)CO1 (single isomer, unassigned) [Example 1487] , please?
Result: 70

Query: Ok, now C=C(c1ccc(C(F)(F)F)cc1)C(O)(Cn1cncn1)c1ccc(Cl)cc1 (stereo not shown) [Example 67]
Result: 100

Query: // query: C=C(c1ccc(Br)cc1)C(O)(Cn1cncn1)c1ccc(F)cc1 (stereo not shown) [Example 85]
Result: 70

Query: # repeat for C=C(c1ccc(F)cc1)C(O)(Cn1cncn1)c1cccc(C(F)(F)F)c1 (stereo not shown) [Example 661]
Result: 0

Query: Entry to check: C=C(c1ccc(Cl)cc1)C(O)(Cn1cncn1)c1ccc(Cl)cc1Cl (stereo not shown) [Example 26]
Result: 100

Query: And C=C(c1ccc(F)cc1)C(O)(Cn1cncn1)C(C)C (stereo not shown) [Example 667] ?
Result: 0

Query: Okay, and C=C(c1cccc(F)c1)C(O)(Cn1cncn1)c1ccc(Cl)cc1 (stereo not shown) [Example 17] ?
Result: 70

Query: Now consider C=C(c1ccccc1)C(O)(Cn1cncn1)c1ccccc1F (stereo not shown) [Example 594] and answer again.
Result: 0

Query: Let us now turn to C=C(c1ccc(F)cc1)C(Cn1cncn1)(OC)c1ccc(F)cc1 (stereo not shown) [Example 359]
Result: 80

Query: Entry to check: C=C(c1ccccc1)C(O)(Cn1cncn1)c1ccccc1Cl (stereo not shown) [Example 596]
Result: 40

Query: Now try C=C(c1ccccc1)C(O)(Cn1cncn1)c1ccc(Cl)cc1Cl (stereo not shown) [Example 50] .
Result: 50

Query: Note, next up: C=C(c1ccccc1)C(O)(Cn1cncn1)c1ccccc1 (stereo not shown) [Example 608]
Result: 20

Query: And then C=C(c1ccccc1)C(O)(Cn1cncn1)c1ccc(F)cc1F (stereo not shown) [Example 52] , what is it?
Result: 90

Query: Next: C=C(c1ccccc1)C(O)(Cn1cncn1)c1ccc(Cl)cc1 (stereo not shown) [Example 51]
Result: 80

Query: What do we get for C=C(c1cccc(F)c1)C(O)(Cn1cncn1)c1ccc(Cl)cc1Cl (stereo not shown) [Example 16] ?
Result: 100

Query: Now give it for C=C(c1ccc(C(F)(F)F)cc1)C(O)(Cn1cncn1)c1ccc(F)cc1 (stereo not shown) [Example 65] too.
Result: 50

Query: How about C=C(c1ccc(C(C)(C)C)cc1)C(O)(Cn1cncn1)c1ccc(Cl)cc1 (stereo not shown) [Example 117] ?
Result: 0

Query: Query C=C(c1ccc(F)cc1)C(O)(Cn1cncn1)c1ccc(Cl)c(Cl)c1 (stereo not shown) [Example 651] next
Result: 20

Query: Try this molecule too: C=C(c1ccc(Cl)cc1)C(O)(Cn1cncn1)c1ccc(Cl)cc1 (stereo not shown) [Example 27]
Result: 100

Query: Same question, C=C(c1cccc(Cl)c1)C(O)(Cn1cncn1)c1ccc(F)cc1F (stereo not shown) [Example 42] this time
Result: 50

Query: Moving on to the next molecule: C=C(c1ccc(F)cc1)C(O)(Cn1cncn1)c1ccc(Cl)cc1Cl (stereo not shown) [Example 2]
Result: 80

Query: Param item: C=C(c1ccc(F)cc1)C(O)(CC)Cn1cncn1 (stereo not shown) [Example 668]
Result: 0

Query: // repeat for C=C(c1ccc(F)cc1)C(O)(Cn1cncn1)c1ccccc1F (stereo not shown) [Example 644] and report
Result: 50

Query: Same lookup for C=C(c1ccccc1)[C@](O)(Cn1cncn1)c1ccc(F)cc1 [Example 1276] , please.
Result: 50

Query: Same thing, different molecule: C=CCOC(Cn1cncn1)(C(=C)c1ccc(F)cc1)c1ccc(F)cc1 (stereo not shown) [Example 360]
Result: 40

Query: Now the same for C=C(c1ccc(SC)cc1)C(O)(Cn1cncn1)c1ccc(F)cc1F (stereo not shown) [Example 164]
Result: 70

Query: Entry to check: CC(=O)N1CCN(c2ccc(OCC3COC(Cn4ccnc4)(c4ccc(Cl)cc4Cl)O3)cc2)CC1 (stereo not shown) [Ketoconazole, reference compound]
Result: 50

Query: Next up: C=C(c1cccc(Cl)c1)C(O)(Cn1cncn1)c1ccccc1F (stereo not shown) [Example 47]
Result: 30

Query: Please give the result for C=C(c1ccccc1Cl)C(O)(Cn1cncn1)c1ccccc1F (stereo not shown) [Example 620] too.
Result: 90

Query: // next record C=C(c1ccccc1)C(O)(Cn1ncnc1S)c1ccc(F)cc1 (stereo not shown) [Example 1278]
Result: 0

Query: What about C=C(c1ccc(F)cc1)C(O)(Cn1cncn1)c1ccccc1 (stereo not shown) [Example 656] ?
Result: 40
